assay: NCI Yeast Anticancer Drug Screen. Data for the bub3 strain (AID 167); conditions: S. cerevisiae bub3 mutant strain, at 1.2 µM, stronger effect = higher value
This is part of a sample that, as a whole, favours compounds with a hit. Of some 79,000 tested, about 15% had one in any assay.
Measure Name: growth inhibition (%)
Could you give me the number in %? Just the number is fine.

Problem: Retrieve growth inhibition measured for CCCCN(CCCC)C(=O)/C=C/c1ccccc1 and print it.
Result: -2

Problem: Retrieve growth inhibition measured for COC(=O)/C=C(/C(=O)OC)C(Cl)(Cl)Cl and print it.
Result: -4

Problem: Retrieve growth inhibition measured for C=C1C(=O)OC2CC1C(OC(C)=O)C/C(C)=C/CC/C(C)=C\CCC2(C)O (stereo unspecified) and print it.
Result: 6

Problem: Retrieve growth inhibition measured for CC(=O)OCC(C)Cc1cc2c(cc1Br)OCO2 (stereo unspecified) and print it.
Result: -2

Problem: Retrieve growth inhibition measured for Cc1nc2ccc(N=NN(C)C)cc2[nH]1 and print it.
Result: -6

Problem: Retrieve growth inhibition measured for COc1cc(C2c3cc4c(cc3OC(OC(C)=O)C2C)OCO4)cc(OC)c1OC (stereo unspecified) and print it.
Result: 5

Problem: Retrieve growth inhibition measured for NC(N)=NS(=O)(=O)c1ccc(Nc2c3ccccc3nc3c(C(=O)NCCO)cccc23)cc1 and print it.
Result: -4

Problem: Retrieve growth inhibition measured for Cc1cc(C(C)(C)C)c(OCCCN2CCOCC2)c(C(C)(C)C)c1 and print it.
Result: -5

Problem: Retrieve growth inhibition measured for CN(C)N=Nc1ccccc1C(=O)NC#N and print it.
Result: 13

Problem: Retrieve growth inhibition measured for c1ccc(CCN2CCc3ccccc3C2)cc1 and print it.
Result: -1

Problem: Retrieve growth inhibition measured for C(=Nc1ccc(-c2cc(-c3ccccc3)nc3ccc4ccccc4c23)cc1)c1ccccc1 and print it.
Result: -9
